Tested on: 379773-124-R-J2-PDC complex spheroids, viability % test/control
Assay: Anticancer human tumor 379773-124-R-J2-PDC patient-derived endometrial carcinoma cell line growth inhibition [CLK]
Details: second compound 0.1 µM; first compound 0.0316 µM; active compounds read low
Measure name: viability, T/C (%)
The reply should contain only the number, in %.

O=c1[nH]cc(F)c(=O)[nH]1 + CNC(=O)c1ccc(Nc2nc(OC3CCCC3)c3c(-c4ccc5nc(C)oc5c4)c[nH]c3n2)c(OC)c1
50.4
COc1c(OCCCN2CCOCC2)ccc2c3n(c(=NC(=O)c4cnc(N)nc4)nc12)CCN3 + CNC(=O)c1ccc(Nc2nc(OC3CCCC3)c3c(-c4ccc5nc(C)oc5c4)c[nH]c3n2)c(OC)c1
25.3
Nc1ccccc1NC(=O)c1ccc(CNC(=O)OCc2cccnc2)cc1 + CNC(=O)c1ccc(Nc2nc(OC3CCCC3)c3c(-c4ccc5nc(C)oc5c4)c[nH]c3n2)c(OC)c1
32.2
CC1COCCN1c1cc(C2(S(C)(=N)=O)CC2)nc(-c2ccnc3[nH]ccc23)n1 (stereo unspecified) + CN1CCN(c2cc(C(=O)Nc3cc4cc(-c5cnn(C)c5)ccc4cn3)ccn2)CC1
84.2

[Q] Lookup: viability, T/C / 379773-124-R-J2-PDC complex spheroids, viability % test/control / CC(Nc1ccc2c(c1)OCCn1cc(N3C(=O)OCC3C(F)F)nc1-2)C(N)=O (stereo unspecified) + CN1CCN(c2cc(C(=O)Nc3cc4cc(-c5cnn(C)c5)ccc4cn3)ccn2)CC1
[A] 92.4

[Q] Lookup: viability, T/C / 379773-124-R-J2-PDC complex spheroids, viability % test/control / CC1COCCN1c1cc(C2(S(C)(=N)=O)CC2)nc(-c2ccnc3[nH]ccc23)n1 (stereo unspecified) + CNC(=O)c1ccc(Nc2nc(OC3CCCC3)c3c(-c4ccc5nc(C)oc5c4)c[nH]c3n2)c(OC)c1
[A] 42.7

* * *

System: 379773-124-R-J2-PDC complex spheroids, viability % test/control
Experiment: Anticancer human tumor 379773-124-R-J2-PDC cell line growth inhibition [CLK]; active = viability on the fitted dose curve at most 10% of control; inactive = the rest;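 note: compound exposure lasted seven days before the viability readout; 100% = DMSO vehicle control wells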
Settings: second compound 1 µM; first compound 10 µM
Choose the fitting class; nothing outside Yes = active, No = inactive is accepted.

As a guide, the following entries are already answered.
CC(=O)O[C@H]1C(=O)[C@@]2(C)[C@H]([C@H](OC(=O)c3ccccc3)[C@]3(O)C[C@H](OC(=O)[C@H](O)[C@@H](NC(=O)c4ccccc4)c4ccccc4)C(C)=C1C3(C)C)[C@]1(OC(C)=O)CO[C@@H]1C[C@@H]2O + CN1CCN(c2cc(C(=O)Nc3cc4cc(-c5cnn(C)c5)ccc4cn3)ccn2)CC1
Yes
Nc1ccn(C2OC(CO)C(O)C2(F)F)c(=O)n1 (stereo not given) + CN1CCN(c2cc(C(=O)Nc3cc4cc(-c5cnn(C)c5)ccc4cn3)ccn2)CC1
Yes
CC(CO)NC(=O)c1cc(-c2ccc(Cl)cc2)nn(-c2cnn(C)c2)c1=O (stereo not given) + CNC(=O)c1ccc(Nc2nc(OC3CCCC3)c3c(-c4ccc5nc(C)oc5c4)c[nH]c3n2)c(OC)c1
No

[Q] // outcome(item) with item = COc1ccc([C@@H](O)c2cc(-c3ncnc4cc(N5CCOCC5)ccc34)c(F)cc2Cl)nn1 + CN1CCN(c2cc(C(=O)Nc3cc4cc(-c5cnn(C)c5)ccc4cn3)ccn2)CC1
[A] Yes

[Q] // outcome(item) with item = C#Cc1c(F)ccc2cc(O)cc(-c3ncc4c(N5CC6CCC(C5)N6)nc(OCC56CCCN5CC(F)C6)nc4c3F)c12 (stereo not given) + CN1CCN(c2cc(C(=O)Nc3cc4cc(-c5cnn(C)c5)ccc4cn3)ccn2)CC1
[A] Yes
